measured-target: T1, interleukin-23 receptor (IL-23R) (UniProt Q5VWK5 24-629, limits assumed)
T1 sequence (looked up): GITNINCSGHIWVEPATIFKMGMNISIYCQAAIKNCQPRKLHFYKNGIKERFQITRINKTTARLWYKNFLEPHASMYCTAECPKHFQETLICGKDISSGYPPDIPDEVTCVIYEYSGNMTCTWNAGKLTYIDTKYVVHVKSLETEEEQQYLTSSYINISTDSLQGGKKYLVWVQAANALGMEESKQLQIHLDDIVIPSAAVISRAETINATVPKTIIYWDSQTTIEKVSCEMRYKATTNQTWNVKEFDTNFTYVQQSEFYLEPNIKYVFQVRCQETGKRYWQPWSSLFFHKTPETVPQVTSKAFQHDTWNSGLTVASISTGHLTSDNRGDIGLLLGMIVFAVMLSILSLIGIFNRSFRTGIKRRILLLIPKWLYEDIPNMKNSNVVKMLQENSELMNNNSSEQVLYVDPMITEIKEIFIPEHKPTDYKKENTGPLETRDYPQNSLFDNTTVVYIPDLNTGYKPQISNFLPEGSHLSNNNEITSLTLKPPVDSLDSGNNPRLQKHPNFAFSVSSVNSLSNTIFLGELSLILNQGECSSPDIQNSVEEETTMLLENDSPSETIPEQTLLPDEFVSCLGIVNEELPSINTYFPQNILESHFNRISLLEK
protocol-summary: cell-based or functional assay
*1 amine or outer side, *2 acyl side, *3 side chain or, on linkers, in order; H or OH if unused. Bridges are numbered along the chain shown (N, C = ends). Primed or numbered codes have the meaning given here. Side-chain parts run from the residue outwards. [ ]: non-standard residue; d: D form. Trp(7-Me) = Cc1cccc2c(C[C@H](N)C(=O)O)c[nH]c12; γGlu = O=C(O)[C@H](CCC(=O)[*:2])N[*:1]; 2Nal = N[C@@H](Cc1ccc2ccccc2c1)C(=O)O; AEF = NCCOc1ccc(C[C@H](N)C(=O)O)cc1; 3Pal = N[C@@H](Cc1cccnc1)C(=O)O; Pen = CC(C)(S)[C@H](N)C(=O)O; PEG12′ = not defined here; Thp = NC1(C(=O)O)CCOCC1; Sar = CNCC(=O)O
measured-endpoint: PBMC pSTAT3 IC50

Ac-[dR][Pen]NT[Trp(7-Me)]K(Ac)[Pen][AEF][2Nal][Thp]K([PEG12′-γGlu-C18OH])N[3Pal][Sar]-NH2 (disulfide 2-7 (inferred)) [SEQ ID NO: 146]    < 0.5 nM

Prompt line: PBMC pSTAT3 IC50 lookup needed for Ac-[dR][Pen]K([PEG12′-γGlu-C20OH])T[Trp(7-Me)]K(Ac)[Pen][AEF][2Nal][Thp]EN[3Pal][Sar]-NH2 (disulfide 2-7 (inferred)) [SEQ ID NO: 99] , thanks.
Response line: < 0.5 nM
